biological target: 1918 HA displayed on 1918 virus-like particles, reconstituted 1918 virus or transfected cells (influenza A/South Carolina/1/1918 …, UniProt Q9WFX3 18-566); assay: cell-based or functional assay
Sequence (Q9WFX3 18-566): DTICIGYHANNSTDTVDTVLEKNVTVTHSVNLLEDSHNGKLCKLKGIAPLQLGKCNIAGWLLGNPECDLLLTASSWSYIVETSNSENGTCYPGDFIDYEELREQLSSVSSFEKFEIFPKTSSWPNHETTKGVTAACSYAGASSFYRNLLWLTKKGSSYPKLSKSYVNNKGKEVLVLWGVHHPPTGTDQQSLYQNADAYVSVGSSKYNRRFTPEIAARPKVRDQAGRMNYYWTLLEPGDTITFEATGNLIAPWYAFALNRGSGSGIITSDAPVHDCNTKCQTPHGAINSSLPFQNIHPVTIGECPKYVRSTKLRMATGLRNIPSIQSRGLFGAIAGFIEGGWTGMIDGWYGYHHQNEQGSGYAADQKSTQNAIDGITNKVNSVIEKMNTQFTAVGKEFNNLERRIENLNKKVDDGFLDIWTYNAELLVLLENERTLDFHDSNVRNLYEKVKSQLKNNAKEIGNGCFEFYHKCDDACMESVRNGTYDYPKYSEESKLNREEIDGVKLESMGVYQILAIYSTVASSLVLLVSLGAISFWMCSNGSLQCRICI
Recorded Specific HAI activity by entry

| binder | Specific HAI activity |
| --- | --- |
| mAb 4D20 (antibody, V domains shown) VH: EVQLVESGPVLVKPTETLTVTCTVSGFSVDNDRMGVSWIRQPPGKALEWLAHIFSNDEKSYSTSLRSRLTISKDTSKRQVVLSMTDMDPVDTATYYCARAPSEYAAMDVWGQGTMVTVS VL: SYVLTQPPSVSVAPGETATVTCGGNNIGSKSVHWYQQKPGQAPVVVIYYDGDRPSGIPERFSGSNSGDTATLTISRVEAGDEADYYCLVWDYTSVHYVFGTGTKVTVLG | 0.04 µg/mL |
| mAb 1F1 (antibody, V domains shown) VH: EVQLVQSGGGVVQPRRSLRLSCAASGFTFSSYAMHWVRQAPGKGLEWVAVISYDGRNKYYADSVKGRFTVSRDNSKNTLYLQMNSLRAEDTSVYYCARELLMDYYDHIGYSPGPTWGQGTLVTVSS VL: QPVLTQPPSASGSPGQRVTISCSGSSSNIGSYTVNWYQQLPGTAPKLLIYSLNQRPSGVPDRFSGSKSGTSASLAISGLQSEDEAVYYCAAWDDSLSAHVVFGGGTKLTVLG | 0.08 µg/mL |
| mAb 1I20 (antibody, V domains shown) VH: EVQLVESGGGVVQPGGSLRLSCIASAFNLGIFGMHWVRQAPGKGLEWVAFIRYDGGKTFYADSVKGRFTISRDNSKNTLYLQMNSLRTEDTALYYCARDATADYYGPGSYPNWLDPWGQGTLVTVS VL: DIRLTQSPATLSVSPGERATLSCRASHSVSRNLAWYQQKPGRAPRLLVYDTSSRATGIPARFSGSGSGTEFTLTISSLQSEDFAVYYCQQYNNWPRTFGQGTKVDIK | 0.16 µg/mL |
| mAb 2B12 (antibody, V domains shown) VH: EVQLQESGPGLVKPSQTLSLTCNVSGGSITGDYKWSWIRQPPGKGLEWIGHIHSTGTTYYNPSLRSRITISMDTSKNNLSLRLTSVTAADTAVYYCASHTLTSGHYPRDFDFWGQGTLVTVSS VL: SYVLTQPPSVSGTPGQRVIISCSGYSSNIGSNTVNWYQQFPGTAPRLLIYANNQRPPGVPDRFSGSKSGTSASLAISGLQSDDESDYYCAAWDDSLNGHWVFGGGTKLTVLG | 0.31 µg/mL |
